Measured pIC50, listed per entry for reference.
SYSTEM UNDER TEST: 6×HIS-tankyrase 1 (1091-1325) (Homo sapiens (Human), UniProt O95271)
Sequence (O95271 1091-1325): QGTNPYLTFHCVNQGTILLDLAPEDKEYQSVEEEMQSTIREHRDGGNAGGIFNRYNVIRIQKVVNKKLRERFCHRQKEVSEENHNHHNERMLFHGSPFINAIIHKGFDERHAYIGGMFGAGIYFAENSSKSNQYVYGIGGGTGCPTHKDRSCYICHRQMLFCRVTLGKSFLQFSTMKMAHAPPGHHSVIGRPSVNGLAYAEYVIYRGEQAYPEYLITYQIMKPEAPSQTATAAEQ
ASSAY NOTES: biochemical
Type: biochemical
CONDITION INFO: […] enzyme, 400 nM NAD, 60 minutes at room temperature; read-out: TNKS1 IP IC50
Give only the number. pIC50 is defined as minus log10 of concentration in molar units.

Consider the reported pIC50 for these molecules:
> print(dat)
                                   molecule                         system.under.test  reported.result
1  CC1(C)OC(=O)N(c2ccc(-c3cc(-c4ccccn4)cnc3F)cc2)[C@H]1c1ccccc1  6×HIS-tankyrase 1 (1091-1325) (Homo sapiens (Human), UniProt O95271)             6.35
2  CC1(C)OC(=O)N([C@H]2CC[C@H](n3c(=O)[nH]c4cnccc43)CC2)[C@H]1c1ccc(F)cc1  6×HIS-tankyrase 1 (1091-1325) (Homo sapiens (Human), UniProt O95271)             8.53
3  CC1(C)OC(=O)N(c2ccc(-c3cc(-c4ncccn4)c[nH]c3=O)cc2)[C@H]1c1ccccc1  6×HIS-tankyrase 1 (1091-1325) (Homo sapiens (Human), UniProt O95271)             7.11
4  O=C(Nc1cccc2cccnc12)c1ccc(N2C(=O)OC3(CCC3)C2c2ccccc2)cc1 (stereo not drawn)  6×HIS-tankyrase 1 (1091-1325) (Homo sapiens (Human), UniProt O95271)             6.09
5  O=C(Nc1cccc2cccnc12)c1ccc(N2C(=O)OC3(CCCC3)C2c2ccccc2)cc1 (stereo not drawn)  6×HIS-tankyrase 1 (1091-1325) (Homo sapiens (Human), UniProt O95271)             5.90
6  CC1(C)OC(=O)N(c2ccc(C(=O)Nc3cnccc3O)cc2)[C@H]1c1ccccc1  6×HIS-tankyrase 1 (1091-1325) (Homo sapiens (Human), UniProt O95271)             5.87
7  CC1(c2ccccc2)CN([C@H]2CC[C@H](n3c(=O)[nH]c4ccccc43)CC2)C(=O)O1 (stereo partly drawn)  6×HIS-tankyrase 1 (1091-1325) (Homo sapiens (Human), UniProt O95271)             7.37
8  CC1(C)OC(=O)N([C@H]2CC[C@H](c3cc(-c4ncccn4)c[nH]c3=O)CC2)[C@H]1c1ccccc1  6×HIS-tankyrase 1 (1091-1325) (Homo sapiens (Human), UniProt O95271)             7.94

Task: What does the record list as pIC50 for Cn1cc(C(=O)N[C@H]2CC[C@H](N3C(=O)OC(C)(C)[C@@H]3c3ccccc3)CC2)c2ccccc21 ?
Result: 6.65

Task: Field entry: CC1(C)OC(=O)N(c2ccc(-n3c(=O)[nH]c4ccccc43)cc2)[C@H]1c1ccccc1
Result: 6.06

Task: Field entry: CC1(C)OC(=O)N([C@H]2CC[C@H](n3c(=O)[nH]c4cnc(C(F)(F)F)cc43)CC2)[C@H]1c1ccccc1
Result: 7.59

Task: Field entry: CC1(C)OC(=O)N(c2ccc(-c3cnc(N)c(-c4nccc(C#N)n4)c3)cc2)[C@H]1c1ccccc1
Result: 6.04

Task: Field entry: CC1(C)OC(=O)N([C@H]2CC[C@H](NC(=O)c3ccc4nccn4c3)CC2)[C@H]1c1ccccc1
Result: 5.81

Task: Field entry: Cn1cc2c(C(=O)N[C@H]3CC[C@H](N4C(=O)OC(C)(C)[C@H]4c4ccccc4)CC3)cccc2n1
Result: 6.65

Task: Field entry: CC1(C)OC(=O)N([C@H]2CC[C@H](n3c(=O)[nH]c4c(F)cc(F)cc43)CC2)[C@H]1c1ccccc1
Result: 7.03

Attribution: patent US9340549B2
